The values you see were collected from patent US20230414780A1.

Below is a list of entries, each paired with its recorded Kd value.
- TARGET: T1, human transferrin receptor (hTfR) fused to EGFP, on CHO cells (human, UniProt P02786 1-760)
- T1 construct: whole, on cells; also called human TfR; CHO-hTfR-EGFP; not shown: EGFP from pEGFP-C1 vector, fused to the N-terminal (intracellular) end of hTfR
- T1 sequence (P02786 whole entry, the tested form may be a part): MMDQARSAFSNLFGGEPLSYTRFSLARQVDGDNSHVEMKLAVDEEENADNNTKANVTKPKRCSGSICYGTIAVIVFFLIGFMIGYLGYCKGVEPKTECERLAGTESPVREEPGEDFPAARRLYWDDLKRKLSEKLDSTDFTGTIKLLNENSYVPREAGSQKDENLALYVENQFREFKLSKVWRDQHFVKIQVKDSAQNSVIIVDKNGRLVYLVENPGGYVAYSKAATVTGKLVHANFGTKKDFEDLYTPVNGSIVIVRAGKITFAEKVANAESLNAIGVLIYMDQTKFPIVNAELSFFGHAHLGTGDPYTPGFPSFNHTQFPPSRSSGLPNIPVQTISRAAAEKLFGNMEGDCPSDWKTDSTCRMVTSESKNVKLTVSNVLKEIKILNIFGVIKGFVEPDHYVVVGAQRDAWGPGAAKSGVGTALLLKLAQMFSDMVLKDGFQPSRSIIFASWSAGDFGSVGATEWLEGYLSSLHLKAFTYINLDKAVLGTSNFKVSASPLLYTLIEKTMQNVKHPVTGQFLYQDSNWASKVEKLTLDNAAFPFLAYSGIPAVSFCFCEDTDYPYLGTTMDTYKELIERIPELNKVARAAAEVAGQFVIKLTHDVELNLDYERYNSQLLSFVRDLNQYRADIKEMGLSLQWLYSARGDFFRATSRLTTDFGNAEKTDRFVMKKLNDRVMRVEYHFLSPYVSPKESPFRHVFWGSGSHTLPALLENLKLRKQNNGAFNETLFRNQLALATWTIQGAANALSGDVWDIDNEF
- ASSAY_OVERVIEW: apparent Kd, flow cytometry, CHO cells

>  <BINDER>
VHH C (B6) (VHH) VHH: EVQLVESGGGLVQPGGSLRLSCTASGGPIEQYPMGWFRRAPGKERELVASISRSGDGTYYAISSVKGRFTISRDNAENTVFLQMNSLKPDDTAVYYCGAGINPTKIWGQGTQVTVSS

>  <Kd>
2.1 nM

$$$$
>  <BINDER>
C5^V31 (VHH) VHH: EVQLVESGGGVVQPGGSLKLSCVASGTDRSINFIRWYRQAPGKQREFVAGFTATGNTNYADSMKGRFTISRDNTKNAVYLQIDSLKPEDTAVYYCYMLDKWGQGTQVTVSS

>  <Kd>
11 nM

$$$$
>  <BINDER>
C5^h22 (VHH) VHH: EVQLVESGGGVVQPGGSLRLSCAASGTDFSINFIRWYRQAPGKGREFVAGFTATGNTNYADSVKGRFTISRDNAKNTLYLQMNSLRPEDTAVYYCYMLDKWGQGTQVTVSS

>  <Kd>
4.9 nM

$$$$
>  <BINDER>
VHH A2 (C5^V2) (VHH) VHH: EVQLVESGGGVVQPGGSLKLSCVASGTAFSINFIRWYRQAPGKQREFVAGFTATGNTNYADSMKGRFTISRDNTKNAVYLQIDSLKPEDTAVYYCYMLDKWGQGTQVTVSS

>  <Kd>
3.2 nM

$$$$
>  <BINDER>
C5^h18 (VHH) VHH: EVQLVESGGGVVQPGGSLKLSCVASGTDFSINFIRWYRQAPGKGLEFVAGFTATGNTNYADSVKGRFTISRDNAKNTLYLQMNSLRPEDTAVYYCYMLDKWGQGTQVTVSS

>  <Kd>
11 nM

$$$$
>  <BINDER>
E8 (VHH) VHH: EVQLVESGGRLVQAGGSLRLSCTASGLAFSTHTMHWFRQAPGKEREFVGAIRWSDEDTEYADSVKGRFTISRDNAKSTVYLQMNNLKPEDTAVYYCAAARGVGTSGHMKYWGQGTQVTVSS

>  <Kd>
3.4 nM

$$$$
>  <BINDER>
C5^h16 (VHH) VHH: EVQLVESGGGLVQPGGSLRLSCAASGTDFSINFIRWYRQAPGKGLEFVAGFTATGNTNYADSVKGRFTISRDNSKNTLYLQMNSLRAEDTAVYYCYMLDKWGQGTLVTVSS

>  <Kd>
8.1 nM

$$$$
>  <BINDER>
C5^h11 (VHH) VHH: EVQLVESGGGVVQPGGSLRLSCAASGTDFSINFIRWVRQAPGKGLEWVAGFTATGNTNYADSMKGRFTISRDNTKNTLYLQMNSLRPEDTAVYYCYMLDKWGQGTQVTVSS

>  <Kd>
1130 nM

$$$$
